Values compiled from patent US5688960A.

The compounds listed here are annotated with their Ki.
- experimentalSystem: human neurokinin 2 (NK2) receptor (Homo sapiens)
- Sequence (P21452 1-398): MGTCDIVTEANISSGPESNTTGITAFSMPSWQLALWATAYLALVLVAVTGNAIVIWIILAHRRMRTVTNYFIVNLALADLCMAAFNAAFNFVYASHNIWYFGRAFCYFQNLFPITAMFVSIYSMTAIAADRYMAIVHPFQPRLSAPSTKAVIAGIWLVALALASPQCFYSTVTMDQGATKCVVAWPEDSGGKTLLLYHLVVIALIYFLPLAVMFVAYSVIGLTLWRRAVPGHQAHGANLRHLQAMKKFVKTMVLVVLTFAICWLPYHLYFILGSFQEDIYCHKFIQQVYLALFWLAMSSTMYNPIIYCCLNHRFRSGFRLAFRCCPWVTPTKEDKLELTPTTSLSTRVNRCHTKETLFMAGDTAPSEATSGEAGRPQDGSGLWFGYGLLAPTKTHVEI
Give a bare numeral; the unit nM is implied.

                                   compound  unitsofmeasure  endpointresult
0  OCCON=C(COCc1cc(C(F)(F)F)cc(C(F)(F)F)c1)C(CCN1CCC(O)(c2ccccc2)CC1)c1csc2ccccc12 (centres unmarked) [Example 4D]              nM              23

Proceed to the following item.
**Query** Look up Ki of CON=C(CN(C)C(=O)c1cc(C)cc(C)c1)C(CCN1CCC(O)(c2ccccc2)CC1)c1csc2ccccc12 (centres unmarked) [Example 7B] and report it.
**Result** 4.5
